- subject_of_test: human TLR9 (Homo sapiens (Human), UniProt Q9NR96)
- Sequence (Q9NR96 26-1032): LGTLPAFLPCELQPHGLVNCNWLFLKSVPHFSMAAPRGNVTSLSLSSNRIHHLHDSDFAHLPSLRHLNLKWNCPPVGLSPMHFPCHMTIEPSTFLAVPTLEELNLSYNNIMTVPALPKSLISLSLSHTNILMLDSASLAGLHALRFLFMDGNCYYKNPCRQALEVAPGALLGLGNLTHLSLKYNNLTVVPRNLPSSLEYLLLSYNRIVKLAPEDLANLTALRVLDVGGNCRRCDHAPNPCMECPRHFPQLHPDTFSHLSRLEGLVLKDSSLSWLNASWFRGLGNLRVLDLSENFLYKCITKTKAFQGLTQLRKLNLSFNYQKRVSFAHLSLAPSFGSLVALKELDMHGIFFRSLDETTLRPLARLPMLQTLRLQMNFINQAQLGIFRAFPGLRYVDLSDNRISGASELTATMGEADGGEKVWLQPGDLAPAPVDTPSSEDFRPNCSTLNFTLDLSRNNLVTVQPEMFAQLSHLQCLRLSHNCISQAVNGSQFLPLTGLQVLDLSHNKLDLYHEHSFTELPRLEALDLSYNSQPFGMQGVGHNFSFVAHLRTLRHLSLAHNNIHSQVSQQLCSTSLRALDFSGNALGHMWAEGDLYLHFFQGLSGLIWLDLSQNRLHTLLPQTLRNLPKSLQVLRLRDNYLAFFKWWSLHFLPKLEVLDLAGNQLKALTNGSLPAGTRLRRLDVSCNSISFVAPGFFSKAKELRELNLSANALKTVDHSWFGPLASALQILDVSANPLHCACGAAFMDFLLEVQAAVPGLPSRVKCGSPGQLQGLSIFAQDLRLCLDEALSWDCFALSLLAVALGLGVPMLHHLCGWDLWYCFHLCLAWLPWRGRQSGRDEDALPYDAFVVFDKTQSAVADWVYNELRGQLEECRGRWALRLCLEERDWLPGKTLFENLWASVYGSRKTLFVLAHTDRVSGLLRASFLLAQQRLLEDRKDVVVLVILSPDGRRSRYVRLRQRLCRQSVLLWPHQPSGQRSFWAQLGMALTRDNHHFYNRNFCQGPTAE
- assay_procedure: TLR9 inhibition reporter assay (HEK-Blue, SEAP)
- Assay type: cell-based
- condition_set: HEK-Blue cells overexpressing human TLR9, ODN2006 5 nM stimulation
pIC50: −log10 of the molar value.

>  <compound>
Cc1cc(-c2[nH]c3ccc(-c4nnc(CCN(C)C)o4)cc3c2C(C)C)ccn1

>  <qualifier>
=

>  <pIC50>
5.78

$$$$
>  <compound>
CCc1c(-c2ccc(OC)c(OC)c2)[nH]c2ccc(-c3nnc(C(N)=O)o3)cc12

>  <qualifier>
<

>  <pIC50>
4.30

$$$$
>  <compound>
Cc1cc(-c2[nH]c3ccc(-c4ccc(N5CCNCC5)nc4)cc3c2C(C)C)cc(C)n1

>  <qualifier>
=

>  <pIC50>
6.82

$$$$
>  <compound>
CC(C)c1c(-c2ccnc3[nH]ncc23)[nH]c2ccc(-c3ccc4[nH]c(=O)cc(O)c4c3)cc12

>  <qualifier>
<

>  <pIC50>
4.30

$$$$
>  <compound>
CNCCN1CCn2nc(-c3ccc4[nH]c(-c5ccnc6[nH]ncc56)c(C(C)C)c4c3)nc2C1

>  <qualifier>
<

>  <pIC50>
4.30

$$$$
>  <compound>
Cc1cc(-c2[nH]c3ccc(-c4cccc(C(=O)N5CC6CNCC6C5)c4)cc3c2C(C)C)ccn1 (stereo not drawn)

>  <qualifier>
=

>  <pIC50>
6.13

$$$$
>  <compound>
COc1ccc(-c2[nH]c3ccc(-c4nnc(CN5CC[C@H](NC(C)=O)C5)o4)cc3c2C(C)C)cc1OC

>  <qualifier>
<

>  <pIC50>
4.30

$$$$
>  <compound>
C#CCN(C)Cc1nnc(-c2ccc3[nH]c(-c4ccc(OC)c(OC)c4)c(C(C)C)c3c2)o1

>  <qualifier>
<

>  <pIC50>
4.30

$$$$
>  <compound>
Cc1cc(-c2[nH]c3ccc(-c4ccc(NC(=O)[C@H]5CCNC5)nc4)cc3c2C(C)C)ccn1

>  <qualifier>
=

>  <pIC50>
5.78

$$$$
>  <compound>
Cc1cc(-c2[nH]c3ccc(-c4nnc(C5CCN(CC(=O)N(C)C)CC5)[nH]4)cc3c2C(C)C)ccn1

>  <qualifier>
=

>  <pIC50>
5.12

$$$$
>  <compound>
Cc1cc(-c2[nH]c3ccc(-c4ccc(N5CCC5)nc4)cc3c2C(C)C)cc(C)n1

>  <qualifier>
=

>  <pIC50>
4.33

$$$$
>  <compound>
Cc1cc(-c2[nH]c3ccc(-c4nnc(C5CCN(C(=O)CN(C)C)CC5)o4)cc3c2C(C)C)ccn1

>  <qualifier>
=

>  <pIC50>
6.13

$$$$
>  <compound>
COc1ccc(-c2[nH]c3ccc(-c4cccc(C(=O)N5CCNCC5)c4)cc3c2C(C)C)cc1OC

>  <qualifier>
=

>  <pIC50>
5.69

$$$$
>  <compound>
COc1ccc(-c2[nH]c3ccc(-c4nnc(C5CCN(CC(=O)N(C)C)CC5)[nH]4)cc3c2C(C)C)cc1OC

>  <qualifier>
=

>  <pIC50>
5.46

$$$$
>  <compound>
CC(C)c1c(-c2ccnc3[nH]ncc23)[nH]c2ccc(-c3ccnn3C)cc12

>  <qualifier>
=

>  <pIC50>
4.84

$$$$
